- testedOn: the molecule itself
- protocolDescription: native MS; proteins buffer exchanged into 200 mM ammonium acetate pH 8.0, alone or mixed in different ratios (two or three components, with or without 50 bp DNA), 10 min on ice
testReadout: stoichiometry N
Numbers only.

Request: GET /values?readout=stoichiometry N&item= MukB long hinge (LH; amino acid residues 568–863) (domain or fragment, E. coli, UniProt P22523 568-863, looked up, MukB, E. coli, residues 568-863: dimeric globular hinge domain and 20% of the coiled-coil region; also called LH (MBP cleaved); LH2; source: NEBExpress cells (pMAL-c5X), purified (amylose, Factor Xa cleavage, HiTrap Q XL, SEC); not shown: MBP, N-terminal, cleaved) SLSDSVSNAREERMALRQEQEQLQSRIQSLMQRAPVWLAAQNSLNQLSEQCGEEFTSSQDVTEYLQQLLEREREAIVERDEVGARKNAVDEEIERLSQPGGSEDQRLNALAERFGGVLLSEIYDDVSLEDAPYFSALYGPSRHAIVVPDLSQVTEHLEGLTDCPEDLYLIEGDPQSFDDSVFSVDELEKAVVVKIADRQWRYSRFPEVPLFGRAARESRIESLHAEREVLSERFATLSFDVQKTQRLHQAFSRFIGSHLAVAFESDPEAEIRQLNSRRVELERALSNHENDNQQQR
Result: 2
